Attribute: phytotoxicity (growth inhibition rate level) Rice plants
System: Rice plants
experiment-notes: Paddy herbicidal activity test, phytotoxicity to transplanted rice
Assay type: in vivo
test-conditions: 1g a.i./10a; rice transplanted in 2.0 leaf stage; 30 days

compound | study-system | value-observed
N#Cc1cnn(-c2nn3c(c2Cl)CCCC3)c1NC(=O)C(F)(F)F [Control agent 4.185] | Rice plants | 2 (20% to less than 30%)

We now examine a further compound.
// fetch phytotoxicity (growth inhibition rate level) Rice plants given entry N#Cc1cnn(-c2nn3c(c2Cl)CCCC3)c1N(CCCCl)C(=O)C(F)(F)F
1 (10% to less than 20%)

====

Test system: Chenopodium album
experiment-notes: Weed foliar treatment test
Format: in vivo
test-conditions: 10g a.i./10a; foliar spray; 3 weeks
Parameter: herbicidal efficacy (growth inhibition rate level) Chenopodium album. Scope: all listed entries.

compound | study-system | value-observed
COCCN(C(=O)C(F)(F)F)c1c([N+](=O)[O-])cnn1-c1nn2c(c1Cl)CCCC2 | Chenopodium album | 10 (100%)

Could you please provide reported herbicidal efficacy (growth inhibition rate level) Chenopodium album for N#Cc1cnn(-c2nn3c(c2Cl)CCCC3)c1NCCCl [Control agent 4.92] ? Thanks!
6 (60% to less than 70%)

Given the compound CN(C(=O)C(F)(F)F)c1c(C#N)cnn1-c1nn2c(c1Cl)CCCC2 [Control agent 4.237] , write its reported herbicidal efficacy (growth inhibition rate level) Chenopodium album.
5 (50% to less than 60%)

Note down herbicidal efficacy (growth inhibition rate level) Chenopodium album recorded for N#Cc1cnn(-c2nn3c(c2Br)CCCC3)c1N(CCCl)C(=O)C(F)(F)F
10 (100%)

====

Test system: Rice plants
experiment-notes: Paddy herbicidal activity test, phytotoxicity to transplanted rice
Assay type: in vivo
test-conditions: 5g a.i./10a; rice transplanted in 2.0 leaf stage; 30 days
Entries and their measured phytotoxicity (growth inhibition rate level) Rice plants follow.

Give the value of phytotoxicity (growth inhibition rate level) Rice plants reported for the following: COCCN(C(=O)C(F)(F)F)c1c([N+](=O)[O-])cnn1-c1nn2c(c1Cl)CCCC2 [Compound 20]
1 (10% to less than 20%)

Tell me measured phytotoxicity (growth inhibition rate level) Rice plants for N#Cc1cnn(-c2nn3c(c2Br)CCCC3)c1N(CCCl)C(=O)C(F)(F)F [Compound 16] please.
1 (10% to less than 20%)

Return the recorded phytotoxicity (growth inhibition rate level) Rice plants value; entry: N#Cc1cnn(-c2nn3c(c2Cl)CCCC3)c1NC(=O)C(F)(F)F [Control agent 4.185]
2 (20% to less than 30%)

====

Test system: Chenopodium album
experiment-notes: Farming soil treatment test
Assay type: in vivo
test-conditions: 10g a.i./10a; soil surface spray prior to weed growth; 30 days
observation-type: herbicidal efficacy (growth inhibition rate level) Chenopodium album

Worked cases, herbicidal efficacy (growth inhibition rate level) Chenopodium album given:
compound | study-system | value-observed
COCCNc1c(C#N)cnn1-c1nn2c(c1Cl)CCCC2 [Control agent 4.63] | Chenopodium album | 5 (50% to less than 60%)
N#Cc1cnn(-c2nn3c(c2Br)CCCC3)c1N(CCCl)C(=O)C(F)(F)F [Compound 16] | Chenopodium album | 10 (100%)
CCN(C(=O)C(F)(F)F)c1c(C#N)cnn1-c1nn2c(c1Cl)CCCC2 [Control agent 4.238] | Chenopodium album | 5 (50% to less than 60%)
N#Cc1cnn(-c2nn3c(c2Cl)CCCC3)c1NC(=O)C(F)(F)F [Control agent 4.185] | Chenopodium album | 5 (50% to less than 60%)
COCCN(C(=O)C(F)(F)F)c1c(C#N)cnn1-c1nn2c(c1Cl)CCCC2 [Compound 2] | Chenopodium album | 10 (100%)
N#Cc1cnn(-c2nn3c(c2Cl)CCCC3)c1N(CCCl)C(=O)C(F)(F)F [Compound 1] | Chenopodium album | 10 (100%)

Quickly give me recorded herbicidal efficacy (growth inhibition rate level) Chenopodium album for CN(C(=O)C(F)(F)F)c1c(C#N)cnn1-c1nn2c(c1Cl)CCCC2 [Control agent 4.237]
4 (40% to less than 50%)

Identify herbicidal efficacy (growth inhibition rate level) Chenopodium album associated with the compound COCCN(C(=O)C(F)(F)F)c1c([N+](=O)[O-])cnn1-c1nn2c(c1Cl)CCCC2 [Compound 20]
10 (100%)

Give the measured herbicidal efficacy (growth inhibition rate level) Chenopodium album for N#Cc1cnn(-c2nn3c(c2Cl)CCCC3)c1NCCCl [Control agent 4.92]
5 (50% to less than 60%)

====

Test system: Chenopodium album
experiment-notes: Weed foliar treatment test
Assay type: in vivo
test-conditions: 10g a.i./10a; foliar spray; 3 weeks
Below is a list of entries, each paired with its recorded herbicidal efficacy (growth inhibition rate level) Chenopodium album value.

Please list herbicidal efficacy (growth inhibition rate level) Chenopodium album recorded for the compound COCCNc1c(C#N)cnn1-c1nn2c(c1Cl)CCCC2 [Control agent 4.63]
5 (50% to less than 60%)

Supply herbicidal efficacy (growth inhibition rate level) Chenopodium album value. Item: COCCN(C(=O)C(F)(F)F)c1c(C#N)cnn1-c1nn2c(c1Cl)CCCC2 [Compound 2]
10 (100%)

For the compound N#Cc1cnn(-c2nn3c(c2Cl)CCCC3)c1N(CCCl)C(=O)C(F)(F)F [Compound 1] , report herbicidal efficacy (growth inhibition rate level) Chenopodium album.
10 (100%)

Return the recorded herbicidal efficacy (growth inhibition rate level) Chenopodium album value; entry: CCN(C(=O)C(F)(F)F)c1c(C#N)cnn1-c1nn2c(c1Cl)CCCC2 [Control agent 4.238]
6 (60% to less than 70%)

Return the recorded herbicidal efficacy (growth inhibition rate level) Chenopodium album value; entry: N#Cc1cnn(-c2nn3c(c2Cl)CCCC3)c1NC(=O)C(F)(F)F [Control agent 4.185]
6 (60% to less than 70%)

====

Tested on: Monochoria vaginalis
experiment-notes: Paddy herbicidal activity test
Type: in vivo
test-conditions: 5g a.i./10a; irrigated paddy pot; 30 days
observation-type: herbicidal efficacy (growth inhibition rate level) Monochoria vaginalis

molecule | study-system | value-observed
COCCN(C(=O)C(F)(F)F)c1c(C#N)cnn1-c1nn2c(c1Cl)CCCC2 [Compound 2] | Monochoria vaginalis | 9 (90% to less than 100%)
N#Cc1cnn(-c2nn3c(c2Br)CCCC3)c1N(CCCCl)C(=O)C(F)(F)F [Compound 17] | Monochoria vaginalis | 9 (90% to less than 100%)
N#Cc1cnn(-c2nn3c(c2Cl)CCCC3)c1N(CCC(F)(F)F)C(=O)C(F)(F)C(F)(F)F [Compound 7] | Monochoria vaginalis | 9 (90% to less than 100%)
CCOCCN(C(=O)C(F)(F)F)c1c(C#N)cnn1-c1nn2c(c1Cl)CCCC2 [Compound 5] | Monochoria vaginalis | 8 (80% to less than 90%)
COCCN(C(=O)C(F)(F)F)c1c(C#N)cnn1-c1nn2c(c1Br)CCCC2 [Compound 13] | Monochoria vaginalis | 9 (90% to less than 100%)
N#Cc1cnn(-c2nn3c(c2Br)CCCC3)c1N(CCC(F)(F)F)C(=O)C(F)(F)F [Compound 18] | Monochoria vaginalis | 8 (80% to less than 90%)
N#Cc1cnn(-c2nn3c(c2Cl)CCCC3)c1NCCCl [Control agent 4.92] | Monochoria vaginalis | 1 (10% to less than 20%)

Next molecule, please.
Give recorded herbicidal efficacy (growth inhibition rate level) Monochoria vaginalis. CCN(C(=O)C(F)(F)F)c1c(C#N)cnn1-c1nn2c(c1Cl)CCCC2 [Control agent 4.238]
1 (10% to less than 20%)

====

Test system: Rice plants
experiment-notes: Paddy herbicidal activity test, phytotoxicity to transplanted rice
Type: in vivo
test-conditions: 1g a.i./10a; rice transplanted in 2.0 leaf stage; 30 days
observation-type: phytotoxicity (growth inhibition rate level) Rice plants

Give recorded phytotoxicity (growth inhibition rate level) Rice plants. CCOCCN(C(=O)C(F)(F)F)c1c(C#N)cnn1-c1nn2c(c1Br)CCCC2 [Compound 14]
1 (10% to less than 20%)

====

System: Rice plants
experiment-notes: Paddy herbicidal activity test, phytotoxicity to transplanted rice
Assay type: in vivo
test-conditions: 5g a.i./10a; rice transplanted in 2.0 leaf stage; 30 days
Description: 1. Paddy Herbicidal Activity Test […] Evaluation of herbicidal efficacy was carried out by comparing growth inhibition rate (%) with an untreated group, while evaluation of phytotoxicity was carried out by comparing growth inhibition rate (%) with the state of a complete eradication group, and were evaluated at 11 levels indicated below.
Quick list: phytotoxicity (growth inhibition rate level) Rice plants per entry.

Some compounds with recorded phytotoxicity (growth inhibition rate level) Rice plants:
compound | value-observed
CCN(C(=O)C(F)(F)F)c1c(C#N)cnn1-c1nn2c(c1Cl)CCCC2 [Control agent 4.238] | 2 (20% to less than 30%)
N#Cc1cnn(-c2nn3c(c2Br)CCCC3)c1N(CCC(F)(F)F)C(=O)C(F)(F)F [Compound 18] | 1 (10% to less than 20%)
CN(C(=O)C(F)(F)F)c1c(C#N)cnn1-c1nn2c(c1Cl)CCCC2 [Control agent 4.237] | 2 (20% to less than 30%)

# return recorded phytotoxicity (growth inhibition rate level) Rice plants for entry N#Cc1cnn(-c2nn3c(c2Cl)CCCC3)c1NCCCl [Control agent 4.92]
1 (10% to less than 20%)

Using the record for COCCN(C(=O)C(F)(F)F)c1c(C#N)cnn1-c1nn2c(c1Cl)CCCC2 [Compound 2] , state its measured phytotoxicity (growth inhibition rate level) Rice plants.
1 (10% to less than 20%)

Quickly give me recorded phytotoxicity (growth inhibition rate level) Rice plants for CCOCCN(C(=O)C(F)(F)F)c1c(C#N)cnn1-c1nn2c(c1Br)CCCC2 [Compound 14]
1 (10% to less than 20%)

Input N#Cc1cnn(-c2nn3c(c2Cl)CCCC3)c1N(CCCl)C(=O)C(F)(F)F [Compound 1] , output reported phytotoxicity (growth inhibition rate level) Rice plants.
1 (10% to less than 20%)

Provide only the value of recorded phytotoxicity (growth inhibition rate level) Rice plants for CCOCCN(C(=O)C(F)(F)F)c1c(C#N)cnn1-c1nn2c(c1Cl)CCCC2 [Compound 5]
1 (10% to less than 20%)
